Data credit: patent US20240309109A1

biological target: T1, human CD38 Fc-fusion aa 45-300 (human, UniProt P28907 45-300); assay: ELISA on CD38 Fc-fusion protein, IgG format
T1 construct: Expressed in HEK293 behind a human Vkappa leader, which is left out here; also called CD38-Fc fusion protein; CD38 Fc-Fusion protein
measure-name: ELISA CD38 Fc-Fusion protein (% Reactivity of MOR03087) (%)

- MOR06192 IgG (antibody, V domains shown, copies: 2 + 2) VH: QVQLVESGGGLVQPGGSLRLSCAASGFTFSSYYMNWVRQAPGKGLEWVSVISPGGEAKSYADSVKGRFTISRDNSKNTLYLQMNSLRAEDTAVYYCARDLPLVYTGFAYWGQGTLVTVSS VL: DIELTQPPSVSVAPGQTARISCSGDNLRHYYVYWYQQKPGQAPVLVIYGDSKRPSGIPERFSGSNSGNTATLTISGTQAEDEADYYCQTYTGGASLVFGGGTKLTVLG: 111
